Reference source: PubChem BioAssay

Test: reduced viability of SK-BR-3 breast cancer cells – cell-based, 24 h, human, pilot screen (AID 572);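 further: compound exposure lasted between 18 and 24 h rather than exactly 24 h; 100% = carrier-treated control wells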
Settings: SK-BR-3 viability, CellTiter-Glo luminescence, at 10 µM, stronger effect = lower value
Assignment: determine reported viability for the given compounds.
Unit % implied. Number only.

So what does the record say about viability for Cc1ccc(NC(=O)CN(c2ccc3c(c2)OCO3)S(=O)(=O)c2c(C)n[nH]c2C)cc1 ?
92

So what does the record say about viability for Cc1ccccc1-c1nc(CN2CCC(C(=O)NC3CCN(Cc4ccccc4)CC3)CC2)c(C)o1 ?
91

So what does the record say about viability for COc1ccc(N2CCN(Cc3nc4c(c(=O)n(C)c(=O)n4C)n3Cc3ccccc3C)CC2)cc1 ?
92.5
